Reference source: the supplement of paper PMC7125110

Each entry below lists one item and its recorded self-cleavage kobs at 10000 uM GlcN6P value.
B1: glmS ribozyme (parent)
chain: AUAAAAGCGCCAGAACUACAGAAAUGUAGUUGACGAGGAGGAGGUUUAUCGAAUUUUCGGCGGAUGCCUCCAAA

# Variants of: B1
# test: self-cleavage kobs at 10000 uM GlcN6P; higher = faster cleavage; RNA array
# experimental parameters: with glucosamine-6-phosphate
Variants at the floor of the assay were thinned out.
assay metric: self-cleavage kobs at 10000 uM GlcN6P

>>> result("AUAAAGGCGUCAGAACUACAGAAAUGUAGUUGACGAGGUGGAGGUUUAUCGAAUUUUCGGCGGAUGCCUCCAAA [A6G C10U A39U]")
"< 1e-05 s⁻¹"
>>> result("AUAAAAGCGCCAGAACUACAGAAAUGUAGUUGACGUGGAGGAGGUUUAUCGGAUUUUCGGCGGAUGCCUCCAAA [A36U A52G]")
"< 1e-05 s⁻¹"
>>> result("AUAAACGAGCCAGAACUACAGAAAUGUAGUUGACGAGGAGGAGGUUUUUCGCAUUUUCGGCGGAUGCCUCCAAA [A6C C8A A48U A52C]")
"< 1e-05 s⁻¹"
>>> result("AUAAAAGCGCCAGAACUACAGAAAUGUAGUUUACGAGGAGGAGGUCUAUCGAAUUUUCGGCGGAUGCCUCCAAA [G32U U46C]")
"0.000136 s⁻¹"
>>> result("AUAAACGCGCCAGAAGUACAGAAAUGUAGUUUGCGAGUAGGAGGUUUAUCGAAUUUUCGGCGGAUGCCUCCAAA [A6C C16G G32U A33G G38U]")
"< 1e-05 s⁻¹"
>>> result("AUAAAAGCGCCAGAACUACAGAAAUGUAGUUGACGAGGAAGAGGUUUAUCGGAUUUUCGGCGGAUGCCUCCAAA [G40A A52G]")
"0.000277 s⁻¹"
>>> result("AUAAAAGCGCCAGUACUACAGAAAUGUAGUUGACGAGGAGGAGGUUUAUCGAAUUCUCGGCGGAUGCCUCCAAA [A14U U56C]")
"0.00138 s⁻¹"
>>> result("AUAAAAGCGCCAGAAUUACAGAAAUGUAGUUGACGAGGAGGAGGUUUAUCGAAUUUUCGGCGGAUGCCUCGAAA [C16U C71G]")
"0.000726 s⁻¹"
>>> result("AUAAAAGCGCCAGCACUACAGAAAUGUAGUUGACGAGGAGGAGUUUUAUCGAAUUUUCGGCGGAUGCCUCCAAA [A14C G44U]")
"3.91e-05 s⁻¹"
>>> result("AUAAAACCGCCAGAACUACAGAAAUGUAGUUGACGAGGAGGAGGUUUAUCUAAUUUUCGGCGGAUGCCUCCAAA [G7C G51U]")
"< 1e-05 s⁻¹"
>>> result("AUAAAAGCGCCAGUACUACAGAAAUGUAGAUGACGAGGAGGAGGUUUAUCGAAUUUUCGGCGGAUGCCUCCAAA [A14U U30A]")
"0.00134 s⁻¹"
